Data credit: patent US20100310640A1

biological target: HLA-DR DRB1*1501 (human); experiment: radioligand inhibition, purified HLA-DR
Quick reference for log10(IC50) among some binders
Could you please treat all values as log10 of IC50 in µM?

ICTIDVYMIMVKCWM [Peptide 1622.04] = 0.42

Query: log10(IC50); subject: APTIRGDPECHLFYN [Peptide 9019.0022] 0.56

Query: log10(IC50); subject: PERLAACGPPPVAPP [Peptide 9019.0179] 0.61

Query: log10(IC50); subject: RPRFRELVSEFSRMA [Peptide 9019.0095] -0.46

Query: log10(IC50); subject: LQRYSEDPTVPLPSE [Peptide 9019.0099] 0.73
